# METHOD NOTES: BSK_BT_Bcell_Proliferation: Viability Assessment in the BioMAP Diversity Plus: BT Assay for B cell Proliferation (AID 2284227)
# CONDITION DESCRIPTION: primary human B cells with PBMC
Active and inactive are the calls of the source. How the source made its calls: active means hit-call score of the fitted dose curve at least 0.9, where 1 is the maximum; inactive means score below 0.9.
Parameter call: string, one of active, inactive

MOLECULE	LABEL VALUE
COc1ccc(OC)c(N=Nc2c(O)ccc3ccccc23)c1	inactive
c1ccc2cc(Nc3ccc(Nc4ccc5ccccc5c4)cc3)ccc2c1	inactive
CN(c1nccc(=O)[nH]1)C1CCN(c2nc3ccccc3n2Cc2ccc(F)cc2)CC1	inactive
CC(C=O)Cc1ccc(C(C)(C)C)cc1 (centres undefined)	inactive
O=C1OC2(c3ccccc31)c1ccc(O)c(Br)c1Oc1c2ccc(O)c1Br	inactive
c1ccc(Oc2ccccc2)cc1	inactive

Prompt: Which outcome did this test record for the molecule CCCCOC(=O)CCCCCCCC(=O)OCCCC ?
Completion: inactive

Prompt: Which outcome did this test record for the molecule CCCCN(CCCC)C(=O)N(CCCC)CCCC ?
Completion: active

Prompt: Which outcome did this test record for the molecule COc1cc(Cl)c(OC)cc1N ?
Completion: inactive
